Biological target: recombinant rat L-type calcium channel (LTCC) subunits (α1c, α2δ, and β1) (Rattus norvegicus)
Construct: expressed in transfected cells
Sequence (P22002 whole entry): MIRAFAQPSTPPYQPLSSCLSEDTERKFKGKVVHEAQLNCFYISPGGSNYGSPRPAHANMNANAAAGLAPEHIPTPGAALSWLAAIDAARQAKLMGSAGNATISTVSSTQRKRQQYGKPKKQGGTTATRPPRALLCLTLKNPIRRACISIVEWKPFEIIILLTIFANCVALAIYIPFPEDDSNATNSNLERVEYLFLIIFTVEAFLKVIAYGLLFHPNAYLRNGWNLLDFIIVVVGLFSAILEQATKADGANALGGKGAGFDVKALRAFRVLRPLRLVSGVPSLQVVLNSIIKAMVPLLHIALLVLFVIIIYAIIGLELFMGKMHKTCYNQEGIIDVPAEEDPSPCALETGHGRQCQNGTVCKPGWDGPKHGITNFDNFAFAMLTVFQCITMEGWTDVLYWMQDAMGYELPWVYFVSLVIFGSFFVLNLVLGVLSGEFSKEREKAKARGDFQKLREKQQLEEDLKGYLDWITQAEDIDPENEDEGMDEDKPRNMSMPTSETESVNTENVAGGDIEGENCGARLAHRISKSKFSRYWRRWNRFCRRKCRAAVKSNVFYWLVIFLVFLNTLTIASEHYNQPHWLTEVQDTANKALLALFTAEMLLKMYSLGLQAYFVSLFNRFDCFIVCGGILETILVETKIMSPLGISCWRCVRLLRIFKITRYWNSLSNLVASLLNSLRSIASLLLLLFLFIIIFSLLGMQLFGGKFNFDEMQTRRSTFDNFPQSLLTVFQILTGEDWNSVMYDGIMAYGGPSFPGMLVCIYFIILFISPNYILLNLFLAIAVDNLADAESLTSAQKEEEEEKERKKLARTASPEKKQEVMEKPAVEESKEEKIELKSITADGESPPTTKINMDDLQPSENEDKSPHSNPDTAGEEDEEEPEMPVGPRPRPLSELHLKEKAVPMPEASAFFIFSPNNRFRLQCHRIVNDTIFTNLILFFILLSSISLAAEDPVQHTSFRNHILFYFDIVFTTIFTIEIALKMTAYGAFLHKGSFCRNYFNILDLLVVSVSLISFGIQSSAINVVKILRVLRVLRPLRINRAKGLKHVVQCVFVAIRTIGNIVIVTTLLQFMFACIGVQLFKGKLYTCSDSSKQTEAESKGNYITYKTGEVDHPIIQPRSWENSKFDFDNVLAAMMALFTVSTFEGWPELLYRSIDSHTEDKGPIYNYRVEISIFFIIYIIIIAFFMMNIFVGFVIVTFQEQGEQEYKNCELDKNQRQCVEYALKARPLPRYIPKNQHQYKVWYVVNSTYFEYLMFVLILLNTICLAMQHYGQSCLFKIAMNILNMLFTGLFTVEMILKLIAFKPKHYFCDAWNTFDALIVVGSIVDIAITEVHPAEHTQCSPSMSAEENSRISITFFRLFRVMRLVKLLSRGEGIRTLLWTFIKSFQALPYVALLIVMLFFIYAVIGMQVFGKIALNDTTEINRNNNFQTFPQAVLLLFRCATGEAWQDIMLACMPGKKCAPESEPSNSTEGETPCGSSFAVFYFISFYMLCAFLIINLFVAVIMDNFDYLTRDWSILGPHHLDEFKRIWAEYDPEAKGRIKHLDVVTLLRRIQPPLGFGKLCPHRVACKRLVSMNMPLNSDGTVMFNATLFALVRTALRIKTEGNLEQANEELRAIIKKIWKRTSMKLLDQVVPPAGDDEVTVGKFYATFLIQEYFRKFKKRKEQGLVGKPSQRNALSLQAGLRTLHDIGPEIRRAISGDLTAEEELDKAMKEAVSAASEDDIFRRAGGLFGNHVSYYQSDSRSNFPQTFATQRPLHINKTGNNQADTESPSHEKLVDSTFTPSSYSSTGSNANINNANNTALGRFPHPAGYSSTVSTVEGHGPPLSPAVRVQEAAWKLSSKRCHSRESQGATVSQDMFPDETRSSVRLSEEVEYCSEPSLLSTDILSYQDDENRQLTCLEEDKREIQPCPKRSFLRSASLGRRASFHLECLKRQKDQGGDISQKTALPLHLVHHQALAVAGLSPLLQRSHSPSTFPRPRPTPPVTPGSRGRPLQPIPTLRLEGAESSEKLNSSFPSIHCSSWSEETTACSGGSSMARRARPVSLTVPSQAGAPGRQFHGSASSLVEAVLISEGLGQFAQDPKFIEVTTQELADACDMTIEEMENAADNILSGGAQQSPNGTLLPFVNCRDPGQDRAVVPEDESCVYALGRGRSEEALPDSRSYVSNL
Sequence (P54290 25-944 partner limits assumed): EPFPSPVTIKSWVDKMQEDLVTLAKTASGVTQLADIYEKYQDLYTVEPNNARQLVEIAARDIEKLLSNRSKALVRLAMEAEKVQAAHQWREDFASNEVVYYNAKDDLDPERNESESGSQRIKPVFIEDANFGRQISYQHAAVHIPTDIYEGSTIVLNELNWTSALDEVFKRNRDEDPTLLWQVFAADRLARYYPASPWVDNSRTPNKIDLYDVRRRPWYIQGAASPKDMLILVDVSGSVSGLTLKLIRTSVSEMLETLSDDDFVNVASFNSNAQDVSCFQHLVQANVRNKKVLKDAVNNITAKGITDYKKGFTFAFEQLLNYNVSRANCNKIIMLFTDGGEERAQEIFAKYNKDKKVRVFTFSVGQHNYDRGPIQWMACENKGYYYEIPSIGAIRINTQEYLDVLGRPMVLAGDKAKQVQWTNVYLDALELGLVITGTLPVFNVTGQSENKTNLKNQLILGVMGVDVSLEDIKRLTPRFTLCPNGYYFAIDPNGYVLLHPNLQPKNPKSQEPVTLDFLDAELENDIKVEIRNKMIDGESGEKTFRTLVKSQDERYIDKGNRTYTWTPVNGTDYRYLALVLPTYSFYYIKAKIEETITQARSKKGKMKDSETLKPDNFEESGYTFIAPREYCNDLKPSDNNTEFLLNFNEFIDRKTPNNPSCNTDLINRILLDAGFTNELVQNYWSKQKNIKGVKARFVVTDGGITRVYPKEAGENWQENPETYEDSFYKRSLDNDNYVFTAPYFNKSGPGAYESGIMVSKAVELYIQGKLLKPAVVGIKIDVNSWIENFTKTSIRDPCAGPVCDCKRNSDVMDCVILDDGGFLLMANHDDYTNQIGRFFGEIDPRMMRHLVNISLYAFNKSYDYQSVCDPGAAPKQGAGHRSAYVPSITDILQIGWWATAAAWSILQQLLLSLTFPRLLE
Sequence (P54290 945-1091 partner limits assumed): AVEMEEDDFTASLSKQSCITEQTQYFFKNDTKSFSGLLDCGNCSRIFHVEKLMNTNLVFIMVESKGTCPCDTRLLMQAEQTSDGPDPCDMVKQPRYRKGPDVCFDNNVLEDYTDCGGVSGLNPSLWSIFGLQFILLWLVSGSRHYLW
Sequence (P54283 whole entry partner): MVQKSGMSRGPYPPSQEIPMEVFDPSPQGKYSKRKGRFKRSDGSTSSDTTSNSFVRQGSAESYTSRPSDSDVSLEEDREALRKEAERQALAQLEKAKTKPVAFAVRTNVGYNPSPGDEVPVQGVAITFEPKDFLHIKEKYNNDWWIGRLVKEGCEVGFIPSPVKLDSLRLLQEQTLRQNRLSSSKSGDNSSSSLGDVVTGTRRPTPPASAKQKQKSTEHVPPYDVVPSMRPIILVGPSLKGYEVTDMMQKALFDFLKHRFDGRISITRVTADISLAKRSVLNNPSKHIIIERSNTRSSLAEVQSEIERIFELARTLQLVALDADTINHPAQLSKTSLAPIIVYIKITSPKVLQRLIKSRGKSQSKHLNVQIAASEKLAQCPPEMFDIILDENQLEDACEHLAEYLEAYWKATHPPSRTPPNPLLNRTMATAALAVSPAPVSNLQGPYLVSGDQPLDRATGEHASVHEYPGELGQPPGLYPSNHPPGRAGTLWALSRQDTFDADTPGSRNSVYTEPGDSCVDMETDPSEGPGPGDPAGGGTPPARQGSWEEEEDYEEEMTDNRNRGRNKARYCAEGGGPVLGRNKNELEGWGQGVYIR
Assay: FLIPR calcium mobilization assay for L-type calcium channel
Assay type: cell-based
Details: calcium mobilization in vitro assay; HEK293 cells expressing rat LTCC
pIC50: −log10 of the molar value.
Let's look at some compounds and their measured pIC50.

Below, each entry is followed by its recorded pIC50 result.
Exercise: I have this compound here, `COc1cc(NCCC(=O)N2CCC(N(C(C)C)S(=O)(=O)c3cccc(C(F)(F)F)c3)CC2)ccc1F` , and I need its recorded pIC50.
Solution: < 4.70

Exercise: Which pIC50 reading was recorded for the compound `COc1cccc(NCCC(=O)N2CCC(N(C(C)C)S(=O)(=O)c3cccc(C(F)(F)F)c3)CC2)c1OC` ?
Solution: 4.70 to 5.00

Exercise: I'd like to know its pIC50. The compound in question is `CC(C)N(C1CCN(C(=O)CNCC2CCCCC2)CC1)S(=O)(=O)c1cccc(C(F)(F)F)c1`
Solution: < 4.70

Exercise: Which pIC50 value is on record for `CC(C)CNC(=O)CN1CCC(N(C(C)C)S(=O)(=O)c2cccc(C(F)(F)F)c2)CC1` ?
Solution: 5.04

Exercise: Field request: pIC50 | item: `CCOC(=O)c1ccc(NC(=O)CN2CCC(N(C3CC3)S(=O)(=O)c3cccc(C(F)(F)F)c3)CC2)cc1`
Solution: < 4.70

Continuing:
Exercise: Give the measured pIC50 of `CC(C)N(C1CCN(CCCN(c2ccc(F)cc2)c2ccc(F)cc2)CC1)S(=O)(=O)c1cccc(C(F)(F)F)c1` .
Solution: < 4.70

Exercise: Given the entry `CC(C)N(C1CCN(C(=O)CCN(C)Cc2ccccc2)CC1)S(=O)(=O)c1cccc(C(F)(F)F)c1` , report its measured pIC50.
Solution: 5.13

Exercise: Entry under review: `O=C(CN1CCC(N(C2CC2)S(=O)(=O)c2cccc(C(F)(F)F)c2)CC1)Nc1ccccc1` . Reported pIC50?
Solution: < 4.70

Exercise: Fill in: pIC50 of Cc1cccc(NC(=O)CN2CCC(N(C(C)C)S(=O)(=O)c3cccc(C(F)(F)F)c3)CC2)c1 [Compound 42d] is ___
Solution: < 4.70

Exercise: Consider the compound shown here: `O=C(Nc1cc(C(F)(F)F)cc(C(F)(F)F)c1)N1CCC(N(C2CC2)S(=O)(=O)c2cccc(C(F)(F)F)c2)CC1` What is its recorded pIC50?
Solution: < 4.70

Exercise: Endpoint output: pIC50 of CC(C)N(C1CCN(C(=O)C(N)Cc2ccc(OCc3ccccc3)cc2)CC1)S(=O)(=O)c1cccc(C(F)(F)F)c1 (stereo not drawn) . Value?
Solution: 5.62

Exercise: So what does the record say about pIC50 for CC(C)c1ccc(NC(=O)CN2CCC(N(C(C)C)S(=O)(=O)c3cccc(C(F)(F)F)c3)CC2)cc1 [Compound 42f] ?
Solution: < 4.70

Exercise: Suppose we examine the compound `CC(C)N(C1CCN(C(=O)CCNc2ccccc2OC(F)(F)F)CC1)S(=O)(=O)c1cccc(C(F)(F)F)c1` ; what pIC50 value has been reported?
Solution: < 4.70

Exercise: State the recorded pIC50 for this entry: `CC(C)N(C1CCN(C(=O)CCNc2cccc(OC(F)(F)F)c2)CC1)S(=O)(=O)c1cccc(C(F)(F)F)c1`
Solution: < 4.70

Exercise: Fill blank: measured pIC50 of the compound CC(C)C[C@H](NCc1ccccc1)C(=O)N1CCC(N(C(C)C)S(=O)(=O)c2cccc(C(F)(F)F)c2)CC1 [Compound 88b] is ____.
Solution: < 4.70

// provenance: patent US8791264B2
